From: paper PMC7819943

binding signal values for the sequences below.
target: OsWRKY34 (Oryza sativa, UniProt Q0JBA9 1-250); assay: protein-binding microarray (RPBM); PBS, 2% BSA, 51.3 ng/ul salmon testes DNA, 50 uM zinc acetate, 200 nM TF, 25 C, 1 h; high values mean tight binding; conditions: protein: recombinant; tags: N-terminal polyhistidine and DsRed monomer fusion (pET32a); label: CyDye5-dUTP incorporated in the synthesized complementary strand; 3' TTTTT single-stranded linker to array surface; dsDNA, one strand shown
Sequence (Q0JBA9 entry or part of it): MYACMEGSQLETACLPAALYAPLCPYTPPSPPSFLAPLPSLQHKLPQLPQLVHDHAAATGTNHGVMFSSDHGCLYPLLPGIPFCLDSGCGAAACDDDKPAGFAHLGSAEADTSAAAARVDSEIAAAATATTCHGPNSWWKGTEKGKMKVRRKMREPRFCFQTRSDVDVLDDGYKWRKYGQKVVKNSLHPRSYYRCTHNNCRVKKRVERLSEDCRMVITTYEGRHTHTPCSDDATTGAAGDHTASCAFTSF
The full ranking holds about 68,000 sequences; the median of “fluorescence intensity (a.u.)” is about 9,100, and the highest 2% start at about 16,000. Many of the other results were omitted from the sample, so the highest values are more common in it than they were.

{"inputSequence": "ACATATTGGTTGACTTTTTGCCGGGTCCACCGATTGGCACCGGAGTCACCTAGTGCAG", "measuredValue": "17700 fluorescence intensity (a.u.)"}
{"inputSequence": "GGTTGTAATCTATAGGGGTCCTTGTATAGAAATATCGTTTCGGAGTCACCTAGTGCAG", "measuredValue": "8880 fluorescence intensity (a.u.)"}
{"inputSequence": "ACCCACTGATCACGAAATCCACACACTGGCCACATCCAAACGGAGTCACCTAGTGCAG", "measuredValue": "8340 fluorescence intensity (a.u.)"}

What value of binding signal on OsWRKY34 (Oryza sativa, UniProt Q0JBA9 1-250) does AATACTCCCTCCGTTTCGAAATATTTGACGCCGTTGACTTCGGAGTCACCTAGTGCAG have?
12400 fluorescence intensity (a.u.)

And then GTACTCCCTCCGTTTCGAAATATTTAACACCGTTGACTTTCGGAGTCACCTAGTGCAG , what is it?
17400 fluorescence intensity (a.u.)

====

target: OsWRKY34 (Oryza sativa, UniProt Q0JBA9 1-250); test: protein-binding microarray (RPBM); PBS, 2% BSA, 51.3 ng/ul salmon testes DNA, 50 uM zinc acetate, 200 nM TF, 25 C, 1 h; high values mean tight binding; settings: protein: recombinant; tags: N-terminal polyhistidine and DsRed monomer fusion (pET32a); label: CyDye5-dUTP incorporated in the synthesized complementary strand; 3' TTTTT single-stranded linker to array surface; dsDNA, one strand shown
Over roughly 68,000 sequences, “fluorescence intensity (a.u.)” has its median near 9,100; the highest 2% begin near 16,000. Many of the other results were omitted from the sample, so the highest values are more common in it than they were.
quantityName: binding signal

{"inputSequence": "GCCTTGTCTATTGCCTCAGAAGTTGGTTACCCTGTTGTTGCGGAGTCACCTAGTGCAG", "binding signal": "8150 fluorescence intensity (a.u.)"}
{"inputSequence": "TGTTTTTCCTGTGTTTTGCAATCCTCTGTTTTACACTTACCGGAGTCACCTAGTGCAG", "binding signal": "13000 fluorescence intensity (a.u.)"}
{"inputSequence": "TTTGTCAATTGATGTATACATATGTGCTTTGTGTTCCTACCGGAGTCACCTAGTGCAG", "binding signal": "11100 fluorescence intensity (a.u.)"}
{"inputSequence": "CTTAGTTCTCCGCGCTATTCACTTCTGCGCCGTCGCTTTTCGGAGTCACCTAGTGCAG", "binding signal": "8640 fluorescence intensity (a.u.)"}
{"inputSequence": "GATCCGCTCGCCCCGCCGCGCCGCCGACCATCGCCATCGCCGGAGTCACCTAGTGCAG", "binding signal": "8410 fluorescence intensity (a.u.)"}

Please look at the following sequence next.
Lab request: please report binding signal under test system OsWRKY34 (Oryza sativa, UniProt Q0JBA9 1-250) for TCAGTGTTGAGTAGGGTTGGCAGGCGAGCACGCAGTAATGCGGAGTCACCTAGTGCAG
8190 fluorescence intensity (a.u.)

====

Readings of binding signal for the listed sequences
molecular target: OsWRKY34 (Oryza sativa, UniProt Q0JBA9 1-250); assay: protein-binding microarray (RPBM); PBS, 2% BSA, 51.3 ng/ul salmon testes DNA, 50 uM zinc acetate, 200 nM TF, 25 C, 1 h; high values mean tight binding; conditions: protein: recombinant; tags: N-terminal polyhistidine and DsRed monomer fusion (pET32a); label: CyDye5-dUTP incorporated in the synthesized complementary strand; 3' TTTTT single-stranded linker to array surface; dsDNA, one strand shown
The full ranking holds about 68,000 sequences; the median of “fluorescence intensity (a.u.)” is about 9,100, and the highest 2% start at about 16,000. What follows is part of a selection rich in the highest values, with near analogues and random picks from the rest.

Worked examples follow.
{"inputSequence": "TGTGGGTTGGAGGGAGGAGGGGATTGAAGGGTTGTTAATTCGGAGTCACCTAGTGCAG", "binding signal": "14900 fluorescence intensity (a.u.)"}
{"inputSequence": "TCTTTGCAGGTCACTTCCGGGTGCTTCACATTCCGGTTAACGGAGTCACCTAGTGCAG", "binding signal": "8890 fluorescence intensity (a.u.)"}
{"inputSequence": "TTGGTTTGGTTGCTCCTCGCGCTGTTATTGGTTGCTCCTCCGGAGTCACCTAGTGCAG", "binding signal": "19900 fluorescence intensity (a.u.)"}
{"inputSequence": "CAAGGAGGGAGTTGATGGTGGGATTGATCATGGGAGTTATCGGAGTCACCTAGTGCAG", "binding signal": "8560 fluorescence intensity (a.u.)"}
{"inputSequence": "GGTGTTTGGTTGGAGGGATTAAAGTGGGGCTAAACTTTAGCGGAGTCACCTAGTGCAG", "binding signal": "9950 fluorescence intensity (a.u.)"}
{"inputSequence": "ACTTGGTTCTTGCTCATCATCTTTCGCTTGCTCGTCAGCTCGGAGTCACCTAGTGCAG", "binding signal": "8360 fluorescence intensity (a.u.)"}

Quick one: binding signal of AATGTATTTGTCTTATGTTAAATATATTACTACTCTTTTTCGGAGTCACCTAGTGCAG ?
8080 fluorescence intensity (a.u.)

For CCACACTCCTCGCTCGCCTGCCTCTCTGTTCTTAATTAGCCGGAGTCACCTAGTGCAG then?
8750 fluorescence intensity (a.u.)

Lookup CGCTCCGCGATTCGTGTTGGTTCTTTTTTTTGTTTCTTGGCGGAGTCACCTAGTGCAG
8470 fluorescence intensity (a.u.)

Entry TAGTATTTTTTTCCTTGGTTTTGTTTCTATCTCCTCTGACCGGAGTCACCTAGTGCAG please
9480 fluorescence intensity (a.u.)

And what about the sequence GTGCCTAACAATCTGCTGCTTTTTACCCGCCAAGTATCTTCGGAGTCACCTAGTGCAG ?
8180 fluorescence intensity (a.u.)

====

target: OsWRKY34 (Oryza sativa, UniProt Q0JBA9 1-250); test: protein-binding microarray (RPBM); PBS, 2% BSA, 51.3 ng/ul salmon testes DNA, 50 uM zinc acetate, 200 nM TF, 25 C, 1 h; high values mean tight binding; settings: protein: recombinant; tags: N-terminal polyhistidine and DsRed monomer fusion (pET32a); label: CyDye5-dUTP incorporated in the synthesized complementary strand; 3' TTTTT single-stranded linker to array surface; dsDNA, one strand shown
In all, about 68,000 sequences were measured (“fluorescence intensity (a.u.)”: median about 9,100, highest 2% from about 16,000 on). Only a selection was taken, and the highest values are over-represented in it overall.
quantityName: binding signal

Below are worked cases with known answers.
{"inputSequence": "TCGATTCCGGCGTGCGAATTCCTCCACCTCGCCGCCGCCGCGGAGTCACCTAGTGCAG", "measuredValue": "8810 fluorescence intensity (a.u.)"}
{"inputSequence": "TAGCTTTGGCACCTTGCGCGCGCGTACACAGCCGCTTAAGCGGAGTCACCTAGTGCAG", "measuredValue": "8550 fluorescence intensity (a.u.)"}
{"inputSequence": "CTGGGAGGGAGGGGAGGGAGCGCCGCCTTTGCCACTATCGCGGAGTCACCTAGTGCAG", "measuredValue": "16900 fluorescence intensity (a.u.)"}
{"inputSequence": "TTTGTTTTTTTTGCTTATTTAGTTTTTTTTTCAGCTTTTTCGGAGTCACCTAGTGCAG", "measuredValue": "17300 fluorescence intensity (a.u.)"}

Requested field: binding signal. Item: GTGCTGTGATTGGCCGCGCGGGATTTCCTGGGCGGGCGGGCGGAGTCACCTAGTGCAG
15500 fluorescence intensity (a.u.)

Please give the result for ACGACCCTCTACATGTTGCTGCTGGCAGCCGCTCCCTCTCCGGAGTCACCTAGTGCAG too.
8660 fluorescence intensity (a.u.)

Same question for TCGGTGGGTGCCGGGCGGAGCGGTTTTTGAGGGAGGGGTCCGGAGTCACCTAGTGCAG please.
17600 fluorescence intensity (a.u.)

Would you mind doing TCCCCTCTCTGTTGTCATCGTCTTCCTTTCCTTTCCTTTCCGGAGTCACCTAGTGCAG as well?
8230 fluorescence intensity (a.u.)

Another sequence to look at: GGCTTACCCAAGAATAACGATCCAACTTGGGGAGGGAGGGCGGAGTCACCTAGTGCAG
10000 fluorescence intensity (a.u.)

Request: TTTTTTCTGTTTTTTTCTTTCCGTATCTTTTTCAGTTTTTCGGAGTCACCTAGTGCAG
14200 fluorescence intensity (a.u.)

Another: TTTCCCACGTTTTGTCATTTTTTCAGCTATATATTAATTTCGGAGTCACCTAGTGCAG
12000 fluorescence intensity (a.u.)

// query: AGGTGTGTATCGTACCGTGGCGGGCGCTTTCCTGGTGGGGCGGAGTCACCTAGTGCAG
10200 fluorescence intensity (a.u.)

Would you mind doing ATTTTTTCACGTTCGGACCTATGGTTTTTTTGCCACTTTGCGGAGTCACCTAGTGCAG as well?
8520 fluorescence intensity (a.u.)

Repeat with GGGGTATAATTTGTGTCTTAGCTGATAGAATGTGCAGTTGCGGAGTCACCTAGTGCAG
9980 fluorescence intensity (a.u.)

Try this sequence too: GGGTGGCGTCCTGTTGTCATCTTTTATCCCTCTTGAATTCCGGAGTCACCTAGTGCAG
21500 fluorescence intensity (a.u.)

Quick one: TTTTTTTCTTTCCGTATCTTTTTCTTTTTTTGGTTTTTTACGGAGTCACCTAGTGCAG
8410 fluorescence intensity (a.u.)

Same question, ATTCCGGTCATTTACGCGCTTTTAGCTTTGCCCTTCATTTCGGAGTCACCTAGTGCAG this time
17200 fluorescence intensity (a.u.)

How about this sequence: GGGATGGATGGAGGCGGCGGTGCTGAGGTGGTGGGACTGTCGGAGTCACCTAGTGCAG
8460 fluorescence intensity (a.u.)

And then CCCACCTCCACCTCCGCCGGCCGGTACGTTTATCCACTGACGGAGTCACCTAGTGCAG , what is it?
9030 fluorescence intensity (a.u.)

Try this sequence next: GGGGAGGTGGAGATGAGATGAGGCGGCGGGGTGGCGGTGGCGGAGTCACCTAGTGCAG
13700 fluorescence intensity (a.u.)
